Collected pest or weed control at 5 µg/cm2, 5 µg/cm2 values appear next to each entry.
Tested on: Rhipicephalus sanguineus
Experiment: Rhipicephalus sanguineus in-vitro contact test, adult brown dog ticks (RHIPSA Contact)
Assay type: in vivo
Details: 5 μg/cm^2 (=500 g/ha), after 48 hours, read-out: activity (efficacy, ticks dead or moribund)
Write the value in % as a bare number.

Below, 3 compounds whose answers are already recorded.
compound: Cc1cnc(-n2ncnc2[C@H](C)Nc2nc3cc(C(F)(F)F)cc(Cl)c3o2)nc1
test_value: 100
--
compound: C[C@H](Nc1nc2cc(C(F)(F)F)c(Cl)cc2o1)c1ncnn1-c1ncc(F)cn1
test_value: 80
--
compound: C[C@H](Nc1nc2cc(C3CC3)cc(Cl)c2o1)c1ncnn1-c1ncccn1
test_value: 100

Recorded result, `C[C@H](Nc1nc2cc(OC(F)(F)F)c(Cl)cc2o1)c1ncnn1-c1ncc(Br)cn1` , pest or weed control at 5 µg/cm2, 5 µg/cm2: 100

Recorded result, `C[C@H](Nc1nc2cc(C(F)(F)F)c(Cl)cc2o1)c1ncnn1-c1ncccn1` , pest or weed control at 5 µg/cm2, 5 µg/cm2: 100

Recorded result, `C[C@H](Nc1nc2cc(Cl)cc(C(F)(F)F)c2o1)c1ncnn1-c1ncccn1` , pest or weed control at 5 µg/cm2, 5 µg/cm2: 100

Recorded result, `C[C@H](Nc1nc2cc(C3CC3)cc(Cl)c2o1)c1ncnn1-c1ncccc1F` , pest or weed control at 5 µg/cm2, 5 µg/cm2: 80

Recorded result, `C[C@H](Nc1nc2cc(C(F)(F)F)cc(Br)c2o1)c1ncnn1-c1ccc(C#N)cn1` , pest or weed control at 5 µg/cm2, 5 µg/cm2: 100

Recorded result, `C[C@H](Nc1nc2cc(C(F)(F)F)c(Cl)cc2o1)c1ncnn1-c1ncc(Br)cn1` , pest or weed control at 5 µg/cm2, 5 µg/cm2: 100

Recorded result, `CC(C)c1cc(Cl)c2oc(N[C@@H](C)c3ncnn3-c3ccncn3)nc2c1` , pest or weed control at 5 µg/cm2, 5 µg/cm2: 80

Recorded result, `C[C@H](Nc1nc2cc(C(F)(F)F)cc(Cl)c2o1)c1ncnn1-c1ncc(F)cn1` , pest or weed control at 5 µg/cm2, 5 µg/cm2: 100
